Exercise: for every item that follows, state its recorded normalized RNA/DNA level with ligand (log10).
B1: library; a variant is named by its letters at N, in order (parent)
chain: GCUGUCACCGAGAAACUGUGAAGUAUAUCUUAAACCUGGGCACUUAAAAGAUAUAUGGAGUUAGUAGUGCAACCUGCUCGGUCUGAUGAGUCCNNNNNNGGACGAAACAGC

# Variants of: B1
# Procedure text: normalized RNA/DNA level with ligand (relative to sTRSVctl = 100) (log10 (% of sTRSVctl)); HEK293T; ligand: cyclic di-GMP (c-di-GMP-II aptamer); ligand concentration (+) RNA-Seq: 1 mM; higher = less ribozyme self-cleavage, higher mRNA level
# Condition summary: reporter: mCherry (pCS4076), ligand present: yes
Numbers only.

Completed entries (count: 4):
CCACCC
1.87
UACUUG
1.89
AAGGCU
1.83
UGACGC
1.84

For every listed record, write down its normalized RNA/DNA level with ligand (log10).
1. AAGCCA
2. CAGUGA
3. AGCAUG

Result:
[1.79, 1.7, 1.71]
